- Tested Target: G-protein coupled receptor 39 (Homo sapiens)
- Sequence (O43194 whole entry): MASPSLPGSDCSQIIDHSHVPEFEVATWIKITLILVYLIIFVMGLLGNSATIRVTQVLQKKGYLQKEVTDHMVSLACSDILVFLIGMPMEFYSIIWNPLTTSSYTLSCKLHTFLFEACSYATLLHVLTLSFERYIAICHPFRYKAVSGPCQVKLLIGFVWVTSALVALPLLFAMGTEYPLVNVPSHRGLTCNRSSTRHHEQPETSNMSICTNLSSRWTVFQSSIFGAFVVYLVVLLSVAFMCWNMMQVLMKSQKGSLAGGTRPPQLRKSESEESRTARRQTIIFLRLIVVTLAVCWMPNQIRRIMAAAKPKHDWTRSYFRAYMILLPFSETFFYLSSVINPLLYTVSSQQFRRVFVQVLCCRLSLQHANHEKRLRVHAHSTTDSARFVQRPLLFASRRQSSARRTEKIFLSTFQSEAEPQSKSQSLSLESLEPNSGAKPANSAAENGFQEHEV
- Test Summary: Agonist activity at human GPR39 expressed in HEK293 cells co-expressing Galphaq assessed as myo-[2-3H]inositol phosphate accumulation measured after 75 mins by scintillation proximity assay
- Format: functional, cell-based
Outcome Measure: EC50 (nM)

1) Cc1nn(-c2ncnc3nc[nH]c23)c2c1C(OCc1ccccc1F)CC(=O)N2 (centres undefined): 78
2) CCCCCCCCOC1CC(=O)Nc2c1c(C)nn2-c1ncnc2nc[nH]c12 (centres undefined): 388
3) Cc1nn(-c2ncnc3nc[nH]c23)c2c1C(C(=O)NCc1ccccc1)CC(=O)N2 (centres undefined): 2930
